System: Klebsiella aerogenes DSM 30053
Run Description: growth (OD595) fold change vs plate DMSO controls (fold change (ratio)); higher = more growth
Reported Conditions: incubation time: 27 h, anaerobic, 37 °C
Where a name gives a salt, the structure may show the parent alone.
Measurement Type: growth

Some solved entries appear below for comparison.
compound="O=C(O)Cc1cc(I)c(Oc2ccc(O)c(I)c2)c(I)c1 [Tiratricol] (20 µM)" measured_on="Klebsiella aerogenes DSM 30053" measurement_type=growth result=1.04
compound="O=C(O)c1cn(C2CC2)c2cc(N3CCNCC3)c(F)cc2c1=O [Ciprofloxacin hydrochloride monohydrate] (20 µM)" measured_on="Klebsiella aerogenes DSM 30053" measurement_type=growth result=0

Value sought: growth, system Klebsiella aerogenes DSM 30053, item C[C@]12CCC3=C4CCC(=O)C=C4CC[C@H]3[C@@H]1CC[C@@]2(O)CC#N [Dienogest] (20 µM) . Result: 0.616

Value sought: growth, system Klebsiella aerogenes DSM 30053, item CCc1cc(C(N)=S)ccn1 [Ethionamide] (20 µM) . Result: 1.03

Value sought: growth, system Klebsiella aerogenes DSM 30053, item O=C(Nc1ccccc1)OCC(CN1CCCCC1)OC(=O)Nc1ccccc1 (stereo not drawn) [Diperodon hydrochloride] (20 µM) . Result: 0.962

Value sought: growth, system Klebsiella aerogenes DSM 30053, item CCOCC(O)COc1ccc(NC(=O)CC[S+](C)C)cc1 (stereo not drawn) [Suplatast Tosylate] (20 µM) . Result: 0.988

Value sought: growth, system Klebsiella aerogenes DSM 30053, item COC(=O)Nc1nc2cc(C(=O)c3cccs3)ccc2[nH]1 [Nocodazole] (20 µM) . Result: 1.02

Value sought: growth, system Klebsiella aerogenes DSM 30053, item Nc1cc(-c2ccncc2)c[nH]c1=O [Amrinone] (20 µM) . Result: 1.02
